Target: α4β1 integrin on J6.77 cells (UniProt P13612 34-1032; P05556 21-798)
Assay: cell-based or functional assay
// values below are reported Percent Inhibition of J6.77 adhesion to CS-1 peptide, 5 ug/ml
The answer is to be given in %; state only the numeric part.

binder | value.units | quantitative.result
sc 188 (antibody, V domains shown, kappa light chain) VH: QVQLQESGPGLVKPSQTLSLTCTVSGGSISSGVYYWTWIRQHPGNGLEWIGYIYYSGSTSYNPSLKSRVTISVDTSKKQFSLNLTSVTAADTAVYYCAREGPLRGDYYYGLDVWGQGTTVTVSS VL: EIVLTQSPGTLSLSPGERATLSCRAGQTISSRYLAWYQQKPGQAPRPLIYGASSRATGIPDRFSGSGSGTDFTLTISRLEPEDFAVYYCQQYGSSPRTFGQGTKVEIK | % | 2

The binder sc 188 SDM (antibody, V domains shown) VH: QVQLQESGPGLVKPSQTLSLTCTVSGGSISSGVYYWTWIRQHPGNGLEWIGYIYYSGSTSYNPSLKSRVTISVDTSKKQFSLKLTSVTAADTAVYYCAREGPLRGDYYYGLDVWGQGTTVTVSS VL: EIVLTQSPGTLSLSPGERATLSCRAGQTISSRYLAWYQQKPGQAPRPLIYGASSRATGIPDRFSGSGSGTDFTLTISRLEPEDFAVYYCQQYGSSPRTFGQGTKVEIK showed Percent Inhibition of J6.77 adhesion to CS-1 peptide, 5 ug/ml equal to -6

Lookup result for sc 264 RAD (antibody, V domains shown) VH: QVQLQESGPGLVKPSQTLSLTCTVSGGSISSGGYYWSWIRQHPGKGLEWIGYIYYSGRTYNNPSLKSRVTISVDTSKNQFSLKLSSVTAADTAVYYCARVATGRADYHFYAMDVWGQGTTVTVSS VL: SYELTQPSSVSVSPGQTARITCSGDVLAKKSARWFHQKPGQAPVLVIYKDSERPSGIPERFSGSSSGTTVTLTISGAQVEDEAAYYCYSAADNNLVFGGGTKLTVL ; measured Percent Inhibition of J6.77 adhesion to CS-1 peptide, 5 ug/ml: -2

Please fill in: Percent Inhibition of J6.77 adhesion to CS-1 peptide, 5 ug/ml reported for sc 264 (antibody, V domains shown, lambda light chain) VH: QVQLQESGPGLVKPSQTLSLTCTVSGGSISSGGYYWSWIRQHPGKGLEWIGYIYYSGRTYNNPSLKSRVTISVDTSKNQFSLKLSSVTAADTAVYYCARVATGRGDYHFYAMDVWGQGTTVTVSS VL: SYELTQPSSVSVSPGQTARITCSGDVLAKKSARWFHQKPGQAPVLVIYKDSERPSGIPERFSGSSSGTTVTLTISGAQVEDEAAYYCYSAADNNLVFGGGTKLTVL = -30
